Ref: patent US8697739B2

System Under Test: human acetyl-CoA carboxylase 2 (ACC2) (Homo sapiens, UniProt O00763)
Construct: The cDNA encoding amino acids 144 to 2458 of human acetyl-CoA carboxylase 2; made in house; host or cells: Sf9 insect cells (baculovirus, pFastBac1)
Sequence (O00763 144-2458): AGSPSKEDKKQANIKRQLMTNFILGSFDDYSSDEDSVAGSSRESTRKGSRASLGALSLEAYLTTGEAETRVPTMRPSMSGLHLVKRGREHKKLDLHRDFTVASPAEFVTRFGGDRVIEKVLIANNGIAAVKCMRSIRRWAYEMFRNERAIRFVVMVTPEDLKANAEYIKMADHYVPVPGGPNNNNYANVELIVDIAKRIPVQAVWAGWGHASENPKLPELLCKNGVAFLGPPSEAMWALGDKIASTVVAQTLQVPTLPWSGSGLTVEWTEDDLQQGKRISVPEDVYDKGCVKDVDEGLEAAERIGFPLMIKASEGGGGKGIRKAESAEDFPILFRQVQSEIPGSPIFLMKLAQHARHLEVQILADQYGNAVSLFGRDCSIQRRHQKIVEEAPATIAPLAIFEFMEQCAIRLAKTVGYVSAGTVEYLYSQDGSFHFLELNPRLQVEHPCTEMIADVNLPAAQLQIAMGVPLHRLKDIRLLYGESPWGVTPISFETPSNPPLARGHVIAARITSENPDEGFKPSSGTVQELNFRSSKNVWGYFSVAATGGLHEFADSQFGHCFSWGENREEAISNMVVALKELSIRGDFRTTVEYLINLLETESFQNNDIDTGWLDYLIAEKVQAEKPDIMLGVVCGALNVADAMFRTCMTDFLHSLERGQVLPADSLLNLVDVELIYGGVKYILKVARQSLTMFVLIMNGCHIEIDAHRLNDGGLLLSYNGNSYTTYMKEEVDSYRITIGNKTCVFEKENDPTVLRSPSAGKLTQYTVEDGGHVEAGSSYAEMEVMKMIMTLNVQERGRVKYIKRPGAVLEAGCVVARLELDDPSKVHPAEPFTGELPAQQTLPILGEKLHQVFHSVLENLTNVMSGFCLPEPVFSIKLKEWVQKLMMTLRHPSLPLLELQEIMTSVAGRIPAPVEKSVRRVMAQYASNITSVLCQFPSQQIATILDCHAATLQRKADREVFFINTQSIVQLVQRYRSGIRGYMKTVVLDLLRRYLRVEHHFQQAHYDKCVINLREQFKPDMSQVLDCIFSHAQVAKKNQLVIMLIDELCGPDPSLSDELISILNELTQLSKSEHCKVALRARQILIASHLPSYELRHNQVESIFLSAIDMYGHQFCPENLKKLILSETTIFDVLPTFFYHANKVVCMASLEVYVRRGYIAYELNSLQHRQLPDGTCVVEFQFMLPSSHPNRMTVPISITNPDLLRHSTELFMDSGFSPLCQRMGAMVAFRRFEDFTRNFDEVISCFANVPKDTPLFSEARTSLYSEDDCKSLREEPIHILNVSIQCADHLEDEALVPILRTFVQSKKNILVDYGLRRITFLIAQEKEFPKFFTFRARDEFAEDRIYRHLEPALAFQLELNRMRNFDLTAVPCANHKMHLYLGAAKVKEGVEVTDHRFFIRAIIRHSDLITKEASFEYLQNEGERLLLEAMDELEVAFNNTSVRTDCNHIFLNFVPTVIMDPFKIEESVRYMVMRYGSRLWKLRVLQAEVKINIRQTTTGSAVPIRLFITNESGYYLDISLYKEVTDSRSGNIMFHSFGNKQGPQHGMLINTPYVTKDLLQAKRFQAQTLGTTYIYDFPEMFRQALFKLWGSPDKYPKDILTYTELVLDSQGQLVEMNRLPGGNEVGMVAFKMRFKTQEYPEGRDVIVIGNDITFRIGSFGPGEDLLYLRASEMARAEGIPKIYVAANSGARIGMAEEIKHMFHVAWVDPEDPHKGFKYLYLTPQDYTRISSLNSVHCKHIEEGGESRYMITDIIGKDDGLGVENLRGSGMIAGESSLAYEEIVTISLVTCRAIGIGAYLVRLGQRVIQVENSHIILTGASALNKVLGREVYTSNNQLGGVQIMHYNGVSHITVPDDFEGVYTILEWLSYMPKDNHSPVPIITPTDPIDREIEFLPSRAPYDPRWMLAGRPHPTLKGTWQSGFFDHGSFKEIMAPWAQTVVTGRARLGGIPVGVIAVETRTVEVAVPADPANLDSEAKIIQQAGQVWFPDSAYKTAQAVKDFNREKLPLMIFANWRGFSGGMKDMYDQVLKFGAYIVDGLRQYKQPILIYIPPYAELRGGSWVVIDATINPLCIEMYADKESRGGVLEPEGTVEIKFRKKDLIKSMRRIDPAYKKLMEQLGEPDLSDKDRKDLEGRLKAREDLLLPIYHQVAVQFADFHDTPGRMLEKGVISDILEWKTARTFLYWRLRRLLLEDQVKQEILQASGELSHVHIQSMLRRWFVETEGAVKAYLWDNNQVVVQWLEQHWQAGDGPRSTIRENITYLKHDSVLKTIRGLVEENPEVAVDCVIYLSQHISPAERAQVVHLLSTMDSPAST
Method Description: Acetyl-CoA carboxylase enzyme assay (malonyl-CoA formation by LC/MS/MS)
Assay type: biochemical
Assay Setup: recombinant human ACC2 (aa 144-2458); read-out: IC50 ACC2
Outcome Measure: pIC50
Bear in mind: pIC50 is minus log10 of a mol/L concentration; give just that figure.

Field: example entries. Status: answers known.
[[record]]
compound = "C[C@@H](NC(=O)[C@H]1CC[C@H](NS(=O)(=O)c2ccc3nc(N4CCCCC4)ccc3c2)CC1)c1ccc(F)cc1"
numeric_value = 6.74

[[record]]
compound = "CCOc1ccc2cc(S(=O)(=O)N[C@H]3CC[C@](C)(C(=O)N[C@H](C)c4ccc(F)cc4)CC3)ccc2n1"
numeric_value = 8.00

[[record]]
compound = "CCC(C)NC(=O)[C@H]1CC[C@H](NS(=O)(=O)c2ccc3[nH]c(-c4cccnc4)cc3c2)CC1 (stereo partly shown) [Example 286]"
numeric_value = 6.47


Please find the next compound below.
Qu. What pIC50 value was documented for this compound, C[C@@H](NC(=O)[C@H]1CC[C@H](NS(=O)(=O)c2ccc3[nH]cnc3c2)CC1)c1ccc(F)cc1 ?
Ans. 6.69

====

Recorded pIC50 values for a group of molecules are listed next.
System Under Test: human acetyl-CoA carboxylase 2 (ACC2) (Homo sapiens)
Construct: The cDNA encoding amino acids 144 to 2458 of human acetyl-CoA carboxylase 2; made in house; host or cells: Sf9 insect cells (baculovirus, pFastBac1)
Method Description: Acetyl-CoA carboxylase enzyme assay (malonyl-CoA formation by LC/MS/MS)
Assay type: biochemical
Assay Setup: recombinant human ACC2 (aa 144-2458); read-out: IC50 ACC2
Bear in mind: pIC50 is minus log10 of a mol/L concentration; give just that figure.

Field: example entries. Status: answers known.
[[record]]
molecule = "CC(C)c1nnc([C@H]2CC[C@H](NS(=O)(=O)c3ccc4[nH]c(-c5ccc(N6CCN(C)CC6)cc5)nc4c3)CC2)o1"
numeric_value = 6.53

[[record]]
molecule = "C[C@@H](NC(=O)[C@H]1CC[C@H](NS(=O)(=O)c2cnc3c(c2)N(C(=O)OCCOCc2ccccc2)CCN3)CC1)c1ccc(F)cc1"
numeric_value = 6.23

[[record]]
molecule = "COc1cccc(-c2nc3ccc(S(=O)(=O)Nc4ccc(C(=O)OC(C)C)cc4)cc3[nH]2)c1"
numeric_value = 5.83

[[record]]
molecule = "CCCCNC(=O)[C@H]1CC[C@H](NS(=O)(=O)c2ccc3[nH]c(-c4ccccc4)nc3c2)CC1"
numeric_value = 5.93

[[record]]
molecule = "CCOC(=O)COc1ccc2cc(S(=O)(=O)N[C@H]3CC[C@H](C(=O)N[C@H](C)c4ccc(F)cc4)CC3)ccc2n1"
numeric_value = 6.76


Please find the next molecule below.
Qu. What pIC50 value was documented for this molecule, CCOc1ccc2cc(S(=O)(=O)NC3CCC(C(=O)NC(CO)c4ccccc4)CC3)ccc2n1 (stereo not shown) ?
Ans. 7.70

====

System Under Test: human acetyl-CoA carboxylase 2 (ACC2) (Homo sapiens)
Construct: The cDNA encoding amino acids 144 to 2458 of human acetyl-CoA carboxylase 2; made in house; host or cells: Sf9 insect cells (baculovirus, pFastBac1)
Method Description: Acetyl-CoA carboxylase enzyme assay (malonyl-CoA formation by LC/MS/MS)
Format: biochemical
Assay Setup: recombinant human ACC2 (aa 144-2458); read-out: IC50 ACC2
Recorded pIC50 values for a group of molecules are listed next.
Bear in mind: pIC50 is minus log10 of a mol/L concentration; give just that figure.

Field: example entries. Status: answers known.
[[record]]
molecule = "Cn1c(-c2ccc(CCC(=O)O)cc2)c(Cl)c2ccc(S(=O)(=O)N[C@H]3CC[C@H](C(=O)N4CCCCC4)CC3)cc21"
outcome_measure = "pIC50"
numeric_value = 8.00

[[record]]
molecule = "COCCNc1ccc2cc(S(=O)(=O)N[C@H]3CC[C@H](C(=O)N[C@H](C)c4ccc(F)cc4)CC3)ccc2n1"
outcome_measure = "pIC50"
numeric_value = 7.10

[[record]]
molecule = "CC(NC(=O)[C@H]1CC[C@H](NS(=O)(=O)c2ccc3c(c2)N(C)CCC3)CC1)c1ccccn1 (stereo partly drawn)"
outcome_measure = "pIC50"
numeric_value = 6.46

[[record]]
molecule = "Cn1c(-c2ccccc2)cc2ccc(S(=O)(=O)N[C@H]3CC[C@H](C(=O)N4CCN(c5ncccn5)CC4)CC3)cc21"
outcome_measure = "pIC50"
numeric_value = 6.89


Qu. What pIC50 value was documented for this molecule, CCCCOC(=O)c1ccc(NS(=O)(=O)c2ccc3nc(-c4ccccc4)[nH]c3c2)cc1 ?
Ans. 5.95

Qu. What pIC50 value was documented for this molecule, Cn1c(C2CC2)c(C#N)c2ccc(S(=O)(=O)N[C@H]3CC[C@H](C(=O)N4CCOCC4)CC3)cc21 ?
Ans. 6.82
